System name: slc26a3 (Mus musculus, UniProt Q9WVC8)
Construct: host or cells: Fischer rat thyroid (FRT) cells expressing YFP, clonal line FRT-YFP-slc26a3
Sequence (Q9WVC8 whole entry): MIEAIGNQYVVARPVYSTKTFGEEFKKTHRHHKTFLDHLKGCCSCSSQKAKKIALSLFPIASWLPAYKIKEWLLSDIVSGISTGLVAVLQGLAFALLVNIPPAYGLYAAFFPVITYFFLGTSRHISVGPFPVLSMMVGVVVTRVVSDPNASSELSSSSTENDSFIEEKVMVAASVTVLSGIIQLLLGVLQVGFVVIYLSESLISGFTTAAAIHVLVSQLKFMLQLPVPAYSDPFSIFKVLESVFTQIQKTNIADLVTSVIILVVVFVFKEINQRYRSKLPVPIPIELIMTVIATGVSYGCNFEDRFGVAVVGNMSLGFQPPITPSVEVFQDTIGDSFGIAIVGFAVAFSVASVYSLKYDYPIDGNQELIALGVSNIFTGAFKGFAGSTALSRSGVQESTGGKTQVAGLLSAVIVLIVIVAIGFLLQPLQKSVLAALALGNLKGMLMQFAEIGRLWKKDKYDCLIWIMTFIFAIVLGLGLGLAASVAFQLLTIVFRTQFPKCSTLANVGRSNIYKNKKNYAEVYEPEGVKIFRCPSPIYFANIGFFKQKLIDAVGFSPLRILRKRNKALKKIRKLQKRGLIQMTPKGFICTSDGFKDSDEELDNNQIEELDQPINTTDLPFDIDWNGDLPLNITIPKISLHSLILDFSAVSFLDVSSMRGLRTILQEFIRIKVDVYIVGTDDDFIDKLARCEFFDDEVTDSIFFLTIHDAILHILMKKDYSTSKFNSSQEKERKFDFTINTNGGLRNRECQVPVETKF
Protocol notes: slc26a3-mediated Cl-/SCN- exchange
Format: cell-based, murine
Recorded conditions: read-out: IC50 for inhibition of slc26a3-mediated Cl-/SCN- exchange
pIC50: −log10 of the molar value.
Measure name: pIC50

Mol: Cc1c(CC(=O)O)c(=O)oc2c(C)c(OCc3cccc(Br)c3)ccc12
Value: ~6.52

----------
# IC50 per record follows
System name: murine slc26a3 (Mus musculus)
Construct: host or cells: Fischer rat thyroid (FRT) cells expressing YFP, clonal line FRT-YFP-slc26a3
Protocol notes: slc26a3-mediated Cl-/I- exchange, YFP fluorescence quenching in FRT-YFP-slc26a3 cells
Format: cell-based
Recorded conditions: representative Class A compounds, Table 3; read-out: IC50

Mol: Cc1c(CC(=O)O)c(=O)oc2c(C)c(OCc3cccc(C4CC4)c3)ccc12
IC50 (nM): 70
--
Mol: Cc1c(CC(=O)O)c(=O)oc2c(C)c(OCc3cccc(I)c3)ccc12
IC50 (nM): 40
--
Mol: Cc1c(CC(=O)O)c(=O)oc2c(C)c(OCc3cc(C(F)(F)F)cc(C(F)(F)F)c3)ccc12
IC50 (nM): 15000
--
Mol: Cc1c(CC(=O)O)c(=O)oc2c(C)c(OCC3CCCC3)ccc12
IC50 (nM): 1800
--
Mol: Cc1c(CC(=O)O)c(=O)oc2c(C)c(OCc3cccc([N+](=O)[O-])c3)ccc12
IC50 (nM): 500
--
Mol: Cc1c(CC(=O)O)c(=O)oc2c(C)c(OCc3ccc(C(F)(F)F)o3)ccc12
IC50 (nM): 300
--
Mol: Cc1c(CC(=O)O)c(=O)oc2c(C)c(OCc3ccccc3I)ccc12
IC50 (nM): 4500
--
Mol: Cc1c(CC(=O)O)c(=O)oc2c(C)c(OC3CCCC3)ccc12
IC50 (nM): 4500
--
Mol: Cc1c(CC(=O)O)c(=O)oc2c(C)c(OCc3cccc(C(F)(F)F)c3)ccc12
IC50 (nM): 25
--
Mol: Cc1c(CC(=O)O)c(=O)oc2c(C)c(OCC3CCC3)ccc12
IC50 (nM): 3400
--
Mol: Cc1c(CC(=O)O)c(=O)oc2c(C)c(OCc3cc(C(F)(F)F)ccc3F)ccc12
IC50 (nM): 100
--
Mol: CCCCCCOc1ccc2c(C)c(CC(=O)O)c(=O)oc2c1C
IC50 (nM): 1500

----------
System name: murine slc26a3 (Mus musculus, UniProt Q9WVC8)
Construct: host or cells: Fischer rat thyroid (FRT) cells expressing YFP, clonal line FRT-YFP-slc26a3
Protocol notes: slc26a3-mediated Cl-/I- exchange, YFP fluorescence quenching in FRT-YFP-slc26a3 cells
Type: cell-based
Recorded conditions: read-out: IC50 for inhibition of slc26a3-mediated Cl-/I- exchange
Measure name: IC50

Compound: O=C(O)c1cccnc1Nc1cccc(C(F)(F)F)c1 [niflumic acid, reference compound]
Value: ~60 µM

----------
System name: murine slc26a3 (Mus musculus, UniProt Q9WVC8)
Construct: host or cells: Fischer rat thyroid (FRT) cells expressing YFP, clonal line FRT-YFP-slc26a3
Protocol notes: slc26a3-mediated Cl-/I- exchange, YFP fluorescence quenching in FRT-YFP-slc26a3 cells
Format: cell-based
Recorded conditions: summary statement; read-out: IC50 for inhibition of SLC26A3-mediated anion exchange
Experimental: High-throughput screening to identify slc26a3 inhibitors using FRT-YFP- slc26a3 cells was done with a semi-automated Beckman Coulter (Indianapolis, IN) platform with FLUOstar OMEGA plate readers (BMG Labtech, Cary, NC), essentially as described for discovery of pendrin inhibitors. Initial screening was done of ~50,000 drug-like synthetic small molecules (ChemDiv, San Diego, CA) at a concentration of 25 µM using a Cl^-/I^- exchange protocol to assay slc26a3 function. […]
Measure name: IC50

Mol: Cc1c(CC(=O)O)c(=O)oc2c(C)c(OCc3cccc(Br)c3)ccc12
Measure name: IC50
Value: 0.1 to 0.2 µM

----------
# pIC50 per record follows
System name: murine slc26a3 (Mus musculus)
Construct: host or cells: Fischer rat thyroid (FRT) cells expressing YFP, clonal line FRT-YFP-slc26a3
Protocol notes: slc26a3-mediated Cl-/I- exchange, YFP fluorescence quenching in FRT-YFP-slc26a3 cells
Assay type: cell-based
Recorded conditions: selected class A analogs, Table 1; Cl-/I- exchange; read-out: IC50
pIC50: −log10 of the molar value.

Molecule: Cc1c(CC(=O)O)c(=O)oc2c(C)c(OCc3ccc(Cl)c(Cl)c3)ccc12 [Compound A7]
pIC50: 5.74
--
Molecule: Cc1c(CC(=O)O)c(=O)oc2c(C)c(OCc3cccc(Br)c3)ccc12 [Compound A1]
pIC50: 6.82

----------
Protocol notes: Pharmacokinetics in mice, serum LC/MS
Format: in vivo
Recorded conditions: mouse, serum, po; 5 mg/kg (A1, A260) or 10 mg/kg (A270), mice, n=3; read-out: oral bioavailability (mean±SEM)
Measure name: bioavailability

Mol: Cc1c(CC(=O)O)c(=O)oc2c(C)c(OCc3cccc(C(F)(F)F)c3)ccc12
Measure name: bioavailability
Value: 16.4%

Mol: Cc1c(CC(=O)O)c(=O)oc2c(C)c(OCc3cccc(I)c3)ccc12
Measure name: bioavailability
Value: 39.3%

Mol: Cc1c(CC(=O)O)c(=O)oc2c(C)c(OCc3cccc(Br)c3)ccc12
Measure name: bioavailability
Value: 53.9%

----------
System name: (human) SLC26A3 (Homo sapiens)
Sequence (P40879 whole entry): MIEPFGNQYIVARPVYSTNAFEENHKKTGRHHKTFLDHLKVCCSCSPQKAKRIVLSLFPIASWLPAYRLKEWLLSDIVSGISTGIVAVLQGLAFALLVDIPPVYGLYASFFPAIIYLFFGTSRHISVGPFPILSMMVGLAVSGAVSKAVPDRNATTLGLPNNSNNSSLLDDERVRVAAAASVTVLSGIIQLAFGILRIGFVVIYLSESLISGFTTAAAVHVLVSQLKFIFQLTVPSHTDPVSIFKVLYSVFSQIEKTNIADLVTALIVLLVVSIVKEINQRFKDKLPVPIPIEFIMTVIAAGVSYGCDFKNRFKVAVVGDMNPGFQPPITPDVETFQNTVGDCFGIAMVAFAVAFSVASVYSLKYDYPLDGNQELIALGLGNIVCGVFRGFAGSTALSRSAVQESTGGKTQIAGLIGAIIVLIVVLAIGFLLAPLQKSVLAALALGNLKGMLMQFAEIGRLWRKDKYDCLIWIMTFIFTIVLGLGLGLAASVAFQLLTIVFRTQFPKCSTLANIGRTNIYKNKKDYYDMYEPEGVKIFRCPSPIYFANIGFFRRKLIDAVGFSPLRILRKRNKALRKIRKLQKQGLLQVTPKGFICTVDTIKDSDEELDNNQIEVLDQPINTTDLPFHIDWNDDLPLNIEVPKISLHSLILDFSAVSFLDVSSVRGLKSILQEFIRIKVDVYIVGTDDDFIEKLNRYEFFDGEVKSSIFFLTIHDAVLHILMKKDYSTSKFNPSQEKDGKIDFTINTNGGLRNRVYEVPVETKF
Protocol notes: SLC26A3-mediated Cl-/I- exchange in HEK cells expressing SLC26A3 and YFP
Recorded conditions: HEK cells
Measure name: IC50

Molecule: Cc1c(CC(=O)O)c(=O)oc2c(C)c(OCc3cccc(Br)c3)ccc12 [Compound A1]
System name: (human) SLC26A3 (Homo sapiens)
Value: ~250 nM
